The measurements presented in this section are drawn from PubChem BioAssay AID179.

// reported pEC50 per item
- Test system: CEM cells HIV-1 protection, formazan growth assay
- ASSAY OVERVIEW: NCI AIDS Antiviral Assay
pEC50: −log10 of the molar value.

Worked set:
# MOLECULE, pEC50
measured = [
    ("CNC(=O)C1CCC(=O)N1CN(C(C)=O)c1ccccc1 (stereo unspecified)", "< 3.70"),
    ("Cc1ccc(Nc2nc3nc[nH]c3c(=O)[nH]2)cc1CO", "< 3.70"),
]

Q: Look up pEC50 for this molecule: Nc1c(Cl)ncnc1Nc1ccc(Cc2ccc(Nc3ncnc(Cl)c3N)cc2)cc1
Result: < 4.10

Q: Okay, and Cc1ccc2nc3c(C)c(Cl)c(=O)cc-3sc2c1 ?
Result: < 4.72

Q: Record: O=C(NC/C(Br)=C/Br)Nc1cnc2ccccc2c1
Result: < 3.70

Q: Entry CC(C)(C)[Si](C)(C)OCC1OC(n2cnc3c(=O)[nH]c(NCc4ccccc4)nc32)C(O[Si](C)(C)C(C)(C)C)C1O[Si](C)(C)C(C)(C)C (stereo unspecified) please
Result: < 3.70

Q: Entry COC(=O)CC(NC(=O)OCc1ccccc1)C(C(=O)OCc1ccccc1)C(C)(OC)OC (stereo unspecified) please
Result: < 4.30

Q: What do you have for OC1CSc2ccccc2-n2cccc21 (stereo unspecified) ?
Result: < 3.86

Q: Try COc1cccc(/C=C/C(=O)c2ccccc2)c1 next.
Result: < 4.24

Q: Lookup CCOC(=O)Cc1csc2[n+]1C(=O)/C(=C/c1cccc(OC)c1O)S2
Result: < 3.70

Q: Can you check CC(NC(=O)C(NC(=O)CNC(=O)OC(C)(C)C)C(C)C)C(=O)Oc1c(Cl)c(Cl)c(Cl)c(Cl)c1Cl (stereo unspecified) next?
Result: < 3.70

* * *

- Test system: CEM cells HIV-1 protection, formazan growth assay
- ASSAY OVERVIEW: NCI AIDS Antiviral Assay
- MEASUREMENT CONTEXT: measured here: growth of uninfected CEM cells
- Procedure: The ability of compounds to protect human CEM cells from HIV-1 infection is measured as a screen for new compounds capable of inhibiting the HIV virus. Five concentrations of drug were tested on uninfected and infected cells and cell growth was measured using a soluble formazan assay. […] Compounds that provided at least 50% protection were retested. Compounds that provided at least 50% protection on retest were listed as moderately active. […]
ASSAY METRIC: IC50 (µM)
A number alone suffices; assume µM.

Examples with answers:
# COMPOUND, READING UNIT, IC50
records = [
    ("Cc1ccnc(NS(=O)(=O)c2ccc(NC(=O)c3ccc4nc5ccccc5c(Nc5ccc(S(=O)(=O)Nc6nccc(C)n6)cc5)c4c3)cc2)n1", "µM", 83.2),
    ("O=c1[nH]c2cc([N+](=O)[O-])ccc2nc1/C=C(\\O)c1ccc([N+](=O)[O-])cc1", "µM", 186),
    ("COc1ccc2c(c1)C=CC1OC(C(C)=O)(C(C)=O)C(C=O)=CN21 (centres undefined)", "µM", 38.9),
]

Attention now shifts to the item below.
Q: # IC50 lookup, item O=C1c2ccccc2Sc2ccccc2N1C(=O)C1CC1
Result: 55

* * *

- Test system: CEM cells HIV-1 protection, formazan growth assay
- ASSAY OVERVIEW: NCI AIDS Antiviral Assay
- MEASUREMENT CONTEXT: measured here: growth of uninfected CEM cells
ASSAY METRIC: IC50

# example entries with known answers
# COMPOUND, ASSAY METRIC, RESULT
rows = [
    ("CCCNc1nc2c(c(=O)n1-c1ccccc1)C=C(C(=O)OC)CCN2S(=O)(=O)c1ccc(C)cc1", "IC50", "> 14.1 µM"),
    ("CC(=O)OC1CCn2c1nc1cc([N+](=O)[O-])c(C)cc12 (stereo not drawn)", "IC50", "> 200 µM"),
]

Shift focus to the following entry.
Q: Missing value: IC50, CEM cells HIV-1 protection, formazan growth assay, entry COC(=O)CC1(O)C(C=C(C)C)C(C(=O)OC)C(=O)C(C(=O)OC)C1C(=O)OC (stereo not drawn) . Fill in?
Result: > 200 µM

* * *

- System: CEM cells HIV-1 protection, formazan growth assay
- ASSAY OVERVIEW: NCI AIDS Antiviral Assay
- MEASUREMENT CONTEXT: measured here: growth of uninfected CEM cells
Reported pIC50 values for the following compounds.
Quick note: pIC50 means taking -log10 of the concentration in moles per liter.

# COMPOUND, pIC50
data = [
    ("O=C(/C=C/c1ccccc1)CCN1CCCCC1", 4.99),
    ("COc1ccc2nc3cccc([N+](=O)[O-])c3c(NCCNCCN(C)C)c2c1", 6.98),
]

Q: GET /values?readout=pIC50&item= Cc1cc(=O)[nH]c(NN2C(Cl)C(=O)C2c2ccc(O)cc2)n1 (stereo not given)
Result: 5.17

Q: Input CC(C)Oc1ccc(CNC2=NCCO2)c2ccccc12
Result: 4.75

Q: Would you kindly repeat that for CC(c1ccccc1)n1c2ccccc2c2c(N)ncnc21 (stereo not given) ?
Result: 4.75

Q: Would you mind doing COC12CC(=O)C(C(C)=O)=C(O)C1(C)c1c(OC(C)=O)c(C)c(O)c(C(C)=O)c1O2 (stereo not given) as well?
Result: 4.97

Q: Repeat with CCCc1nc2c(nc1C)C(=O)C=CC2=O
Result: 4.77

Q: Another: O=C(O)C1OC(Oc2ccc3oc4ccccc4c(=O)c3c2)C(O)C(O)C1O (stereo not given)
Result: 3.84

* * *

- System: CEM cells HIV-1 protection, formazan growth assay
- ASSAY OVERVIEW: NCI AIDS Antiviral Assay;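 active means compounds giving half or more protection of infected cells from virus-caused growth loss, again on retest; inactive means the rest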
- Description: The ability of compounds to protect human CEM cells from HIV-1 infection is measured as a screen for new compounds capable of inhibiting the HIV virus. Five concentrations of drug were tested on uninfected and infected cells and cell growth was measured using a soluble formazan assay. […] Compounds that provided at least 50% protection were retested. Compounds that provided at least 50% protection on retest were listed as moderately active. […]
Log the outcome using a class from True (active), False (inactive)

Worked examples, 10 compounds total:
# COMPOUND, CATEGORY LABEL
data = [
    ("CCOC(=O)c1c(CN2CCNCC2)nc2ccc(Cl)cc2c1-c1ccccc1", "False"),
    ("CCOC(=O)[C@@H]1[C@@H]2NC(=O)N[C@@]1(C)Oc1ccccc12", "False"),
    ("CCOC(=O)CCCN(c1sc(C)c(-c2ccccc2)c1C(=O)OCC)S(=O)(=O)c1ccc(C)cc1", "False"),
    ("COc1ccc(Br)c(CCC(CO)C2=CCC3(CC2)OCCO3)c1 (configuration not stated)", "False"),
    ("O=C(Nc1ccc(CCC2=NCCCN2)cc1)c1ccc(C(=O)Nc2ccc(CCC3=NCCCN3)cc2)cc1", "True"),
    ("COc1cc2c(cc1OC)C(=O)/C(=C/c1ccc(Cl)cc1)CC2", "False"),
    ("CC1NC(=O)C2=C1C(N)=NC(=O)C2 (configuration not stated)", "False"),
    ("CCOc1ccc(NC(=O)C2=C(C)NC(C)=C(C(=O)Nc3ccc(OCC)cc3)C2c2ccc([N+](=O)[O-])cc2)cc1", "False"),
    ("CSC1CC2C(CC1(C)SC)C2(C)C (configuration not stated)", "False"),
    ("CCOc1ccccc1N=Nc1c(-c2ccccc2)nn(C(=O)CC(=O)Nc2cccc(C)c2)c1-c1ccccc1", "False"),
]

Q: I'd appreciate the recorded outcome for CCOC(=O)C1(C#N)OC(=O)c2cnccc21 (configuration not stated) from this test.
Result: False

Q: Next up: COC(=O)N/N=C/c1oc(-c2ccccc2)c(-c2ccccc2)c1[N+](=O)[O-]
Result: False

* * *

- Tested on: CEM cells HIV-1 protection, formazan growth assay
- ASSAY OVERVIEW: NCI AIDS Antiviral Assay;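 active means compounds giving half or more protection of infected cells from virus-caused growth loss, again on retest; inactive means the rest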
Parameter call: string, one of yes (1) (active), no (0) (inactive)

Example cases with answers are listed next.
# MOLECULE, EXPERIMENTAL SYSTEM, CATEGORY LABEL
measured = [
    ("O=C(O)c1ccc2c(c1)S(=O)(=O)c1ccccc1C2=O", "CEM cells HIV-1 protection, formazan growth assay", "no (0)"),
    ("COc1cccc(/C=C2\\S/C(=N/Nc3nc(-c4ccc([N+](=O)[O-])cc4)cs3)NC2=O)c1O", "CEM cells HIV-1 protection, formazan growth assay", "no (0)"),
]

Q: State the result this test recorded for O=c1cc2ccccc2nn1Cc1ccccc1Cl .
Result: no (0)

Q: What would you report for CC(=O)c1cccc(NC(=O)C(=O)C(C(=O)NN)c2ccccc2)c1 (stereo not drawn) ?
Result: no (0)

Q: Same again, this time with C#CC(C)(C)OCCCCOc1cc(O)c2c(=O)c3ccccc3n(C)c2c1
Result: no (0)

Q: Next record, please: CCN(CC)CCCC(C)Nc1ccnc2cc(F)ccc12 (stereo not drawn) (tested in a mixture with another compound)
Result: no (0)

Q: Next entry: Nc1ccccc1-c1nc2ccncc2[nH]1
Result: no (0)

Q: Also check COc1ccc2c(c1)OC[C@@H]1c3cc(O)c4c(OCc5ccccc5)cccc4c3O[C@H]21
Result: no (0)

Q: Follow-up entry: COc1ccc(-n2nnnc2C2(Nc3ccccc3)CCN(Cc3ccccc3)CC2)cc1
Result: no (0)

Q: Queued: Cc1nn(C(=O)Cc2ccccc2)c2c1C(c1ccc(/C=C/c3ccccc3)cc1)SC(N)=N2 (stereo not drawn)
Result: no (0)

Q: And CC(=O)C(CN(C(C)C)C(C)C)C(c1ccccc1)c1c(O)c2ccccc2oc1=O (stereo not drawn) ?
Result: no (0)

Q: Now try CN(NC(=O)c1ccc(Cl)cc1)C1=NCCCCN1 .
Result: no (0)

Q: Note, next up: CN(C)/N=N/c1nc2c(c(=O)n(C)c(=O)n2C)n1CC(O)CO (stereo not drawn)
Result: no (0)

Q: Similarly, Cc1ccc(C=C(C(=O)O)C(=O)O)cc1 ?
Result: no (0)

Q: How about CSc1ncccc1C(=O)[O][Sn]([c]1ccccc1)([c]1ccccc1)[c]1ccccc1 ?
Result: no (0)

Q: Okay, and Cc1cc(C)c(S(=O)(=O)N(CCCCN)OCCCN)c(C)c1 ?
Result: no (0)
